Overview of recorded bioavailability for various compounds
Assay: Oral bioavailability in Sprague-Dawley rat at 8 mg/kg
Settings: in vivo
Give your result in % as a bare value.

Recorded results for 4 compounds are shown here.
C[C@@H]1CN[C@@H](C2CC2)C(=O)N(C)[C@H](C)C(=O)N[C@H](Cc2ccc(F)cc2)C(=O)NCCCc2ccccc2O1.Cl.O [ULIMORELIN HYDROCHLORIDE]    24
C[C@@H]1CN[C@@H](C2CC2)C(=O)N(C)[C@H](C)C(=O)N[C@H](Cc2ccc(F)cc2)C(=O)NCCCc2ccc(F)cc2O1    15
C[C@@H]1C(=O)N[C@H](Cc2ccc(F)cc2)C(=O)NCCCc2ccc(F)cc2OCCN[C@@H](C2CC2)C(=O)N1C    36
C[C@@H]1CN[C@@H](C2CC2)C(=O)N(C)[C@H](C)C(=O)N[C@H](Cc2ccc(Cl)cc2)C(=O)NCCCc2ccccc2O1    22

Consider the record given below.
Identify bioavailability associated with the compound CC[C@H](C)[C@@H]1NCCOc2ccccc2CCCNC(=O)[C@@H](Cc2ccc(Cl)cc2)NC(=O)[C@@H](C)N(C)C1=O
3
